Protein target, amino acids: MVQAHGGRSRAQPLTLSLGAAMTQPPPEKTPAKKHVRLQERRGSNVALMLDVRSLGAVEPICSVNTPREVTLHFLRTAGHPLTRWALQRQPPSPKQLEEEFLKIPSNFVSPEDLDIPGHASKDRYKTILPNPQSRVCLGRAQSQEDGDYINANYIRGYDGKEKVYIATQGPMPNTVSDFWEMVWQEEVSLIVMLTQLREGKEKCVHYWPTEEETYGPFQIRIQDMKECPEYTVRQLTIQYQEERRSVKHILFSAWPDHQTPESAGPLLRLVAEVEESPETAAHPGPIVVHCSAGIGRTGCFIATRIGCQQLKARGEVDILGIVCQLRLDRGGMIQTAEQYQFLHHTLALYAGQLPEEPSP
pIC50: −log10 of the molar value.
valueType: pIC50

- Cc1cc(NC(=O)Cc2cccs2)no1: 6.15
- O=C(COC(=O)c1cccc(S(=O)(=O)N2CCN(c3ccccc3)CC2)c1)NCc1ccco1: 5.30
- Cc1cc(C)n(-c2nc(Nc3ccccc3)nc(-n3nc(C)cc3C)n2)n1: 4.67
- CSc1nc(N(CCO)CCO)c2sc3nc(-c4ccco4)c4c(c3c2n1)CCC4: 6.39
- COc1ccc(Cn2c(C)nc3c(c2=O)c2nc4ccccc4nc2n3Cc2ccco2)cc1: 5.16
- Cc1cc(C(=O)O)ccc1-n1c(C)ccc1C: 6.15
- O=C(Oc1ccccc1)c1ccc2c(c1)C1C=CCC1C(C(=O)O)N2 (centres unmarked): 6.08
- O=C(NCc1ccco1)c1c2c(nc3ccccc13)CCC2: 5.33

1 = O=C1CC(=O)N(Cc2ccco2)C(=O)N1
2 = CCOC(=O)C(C)Sc1nc2c(c(=O)[nH]c(=O)n2C)n1C/C=C(/C)Cl (centres unmarked)
3 = CCC1=NC2Sc3ccccc3C(=O)C2C(=O)N1Cc1ccco1 (centres unmarked)
4 = Cc1ccc(-c2nn3c(C)nnc3s2)cc1NC(=O)c1ccc(-c2ccc(Cl)cc2Cl)o1
Hello, I need these entries ordered by pIC50, highest reading first. Thanks! Please list the labels according to the requested order.
1, 4, 2, 3
(1: 5.88, 4: 5.67, 2: 5.08, 3: 4.82)

* * *

Target: HePTP (Homo sapiens, UniProt P35236)
Sequence (P35236 1-360): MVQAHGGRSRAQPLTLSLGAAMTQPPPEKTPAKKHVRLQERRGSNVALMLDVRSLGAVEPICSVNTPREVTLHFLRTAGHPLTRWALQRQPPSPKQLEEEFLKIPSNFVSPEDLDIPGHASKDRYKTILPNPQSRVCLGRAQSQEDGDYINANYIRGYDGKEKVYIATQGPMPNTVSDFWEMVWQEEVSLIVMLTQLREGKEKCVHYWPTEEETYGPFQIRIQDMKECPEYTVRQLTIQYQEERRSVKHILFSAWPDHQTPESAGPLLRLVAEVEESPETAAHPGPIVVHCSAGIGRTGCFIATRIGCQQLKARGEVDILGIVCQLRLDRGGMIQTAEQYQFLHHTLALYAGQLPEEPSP
Experiment: HePTP HTS primary screen (colorimetric pNPP / Biomol Green)
Assay type: biochemical
Conditions: 20 μM compound; read-out: % Inhib. at 20 μM
valueType: inhibition at 20 µM (%)

a = COc1ccc(C(=O)c2no[n+]([O-])c2C(=O)c2ccc(OC)cc2)cc1
b = O=C(O)CCC(=O)N1CCc2cc(S(=O)(=O)N3CCN(c4ccc(F)cc4)CC3)ccc21
In the pair a and b , the larger recorded inhibition at 20 µM belongs to which? Write down the label of the entry you select.
a

a = COc1cccc2c1NC(C(=O)O)C1CC=CC21 (stereo not shown)
b = O=C1CCCC2=C1C(c1ccco1)Nc1ccc3ccccc3c12 (stereo not shown)
From the items above, decide which of a and b has the lower inhibition at 20 µM reading. Write down the label of the entry you select.
b
